# Test system: Membrane Proteome
# Protocol details: anti-target inhibition in MCF7 proteome, late-stage follow-up, selectivity assay for PAD4 inhibitor project, cell lysate, gel-based fluorescence, soluble and membrane fractions (AID 651628)
# Protocol conditions: CA-Rh gel-based ABPP, anti-target count, at 10 µM
Active and inactive are the calls of the source.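 Rule for the calls: active = at least one off-target enzyme showing weaker fluorescent probe labeling in any proteome panel; inactive = no off-target enzyme affected in any panel.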
Pick from true (1) (active), false (0) (inactive) when you respond.

COC1=C(N)C(=O)c2nc(-c3nc(C(=O)O)c(C)c(-c4ccc(OC)c(OC)c4O)c3N)ccc2C1=O : false (0)
COC(=O)c1cccc(-c2ccc3c(n2)C(=O)C(Br)=CC3=O)n1 : false (0)
NC1=CC(=O)c2cccnc2C1=O : false (0)
COC(=O)c1cccc(-c2ccc3c(n2)C(=O)C(N)=CC3=O)n1 : false (0)
COC1=C(Br)C(=O)c2ncccc2C1=O : true (1)

Query: recorded result category for COC1=C(I)C(=O)c2nc(C#N)ccc2C1=O in this test
true (1)
